- assay_target: SARS-CoV-2 NSP3 macrodomain (Mac1) (Severe acute respiratory syndrome coronavirus 2, UniProt P0DTD1)
- Assay type: binding
- condition_details: crystal soak 10 mM; DMSO background map
quantity: PanDDA run, DMSO background map: 1-BDC

                                   compound  readout_number
0  OCC1C2CCC(C2)N1c1ncnc2[nH]ccc12 (stereo not shown) [AVI-3713]            0.29
1  OCC(Nc1ncnc2[nH]ccc12)C1CCOC1 (stereo not shown) [AVI-3679]            0.16
2  CCC(Nc1ncnc2[nH]ccc12)C(C)(C)O (stereo not shown) [AVI-3667]            0.14
3  CN(C)CC(CO)Nc1ncnc2[nH]ccc12 (stereo not shown) [AVI-3671]            0.17
4  O=C(O)C(F)(F)F.OCC1(Nc2ncnc3[nH]ccc23)CCC1 [AVI-3670]            0.18
5  OCC(CC1CCCC1)Nc1ncnc2[nH]ccc12 (stereo not shown) [AVI-3691]            0.18
6  O=C(O)C(F)(F)F.OCC(Nc1ncnc2[nH]ccc12)C(O)C1CCCCC1 (stereo not shown) [AVI-3687]            0.15
7  O=C(O)C(F)(F)F.OCC(Nc1ncnc2[nH]ccc12)C1CCCO1 (stereo not shown) [AVI-3645]            0.22
8  Cc1ccc(CC(CO)Nc2ncnc3[nH]ccc23)cc1C (stereo not shown) [AVI-3684]            0.15
9  O=C(O)C(F)(F)F.OCC1C2C=CC(C2)N1c1ncnc2[nH]ccc12 (stereo not shown) [AVI-3712]            0.15

====

- assay_target: SARS-CoV-2 NSP3 macrodomain (Mac1) (Severe acute respiratory syndrome coronavirus 2, UniProt P0DTD1)
- Format: binding
- condition_details: PanDDA background density correction factor
Reported 1-BDC values follow for various compounds
quantity: 1-BDC

>>> print(df.to_string())
                                    compound  result
 0        O=C(Nc1ccsc1C(=O)O)c1ccc2c(c1)OCO2    0.07
 1  OCC1CC2(CCCC2)CN1c1ncnc2[nH]ccc12 (stereo not drawn)    0.32
 2  OCC1CCCN1c1ncnc2[nH]ccc12 (stereo not drawn)    0.25
 3  OCC(Cc1ccc(I)cc1)Nc1ncnc2[nH]ccc12 (stereo not drawn)     0.2
 4  C[C@@H](O)[C@H](CO)Nc1ncnc2[nH]ccc12.O=C(O)C(F)(F)F    0.14
 5  CCC(C)(CO)Nc1ncnc2[nH]ccc12 (stereo not drawn)    0.16
 6  CCC(Nc1ncnc2[nH]ccc12)C(C)O (stereo not drawn)    0.14
 7  OCC1COCCN1c1ncnc2[nH]ccc12 (stereo not drawn)    0.14
 8  OCC(Cc1ccccn1)Nc1ncnc2[nH]ccc12 (stereo not drawn)    0.13
 9  CC1CC(C(=O)O)CCN1C(=O)c1ccc2c(c1)OCC(=O)N2 (stereo not drawn)    0.13
10     OC[C@@H]1C[C@H](O)CN1c1ncnc2[nH]ccc12    0.21
11  OCC(CC1CCC1)Nc1ncnc2[nH]ccc12 (stereo not drawn)    0.18
12  O=C(O)C(F)(F)F.OC[C@H]1CC2(CN1c1ncnc3[nH]ccc13)OCCO2    0.21
13  O=C(O)C(F)(F)F.OC1([C@H]2CCCN2c2ncnc3[nH]ccc23)Cc2ccccc2C1     0.2
14  OCC(CC(F)(F)F)Nc1ncnc2[nH]ccc12 (stereo not drawn)    0.23
15  O=C(O)C(F)(F)F.OCC12CC(CN1c1ncnc3[nH]ccc13)C2    0.22
16  OCC(Nc1ncnc2[nH]ccc12)C1CCCC1 (stereo not drawn)    0.16
17  OCC(CC1OCCO1)Nc1ncnc2[nH]ccc12 (stereo not drawn)     0.2
18  OC[C@@H]1C[C@@H]2CCC[C@@H]2N1c1ncnc2[nH]ccc12    0.29
19  OCC(CN1CCCCC1)Nc1ncnc2[nH]ccc12 (stereo not drawn)    0.21
20        O[C@H]1COC[C@@H]1Nc1ncnc2[nH]ccc12    0.08

====

- assay_target: SARS-CoV-2 NSP3 macrodomain (Mac1) (Severe acute respiratory syndrome coronavirus 2)
- Format: binding
- condition_details: crystal soak concentration 20 mM, DMSO background map
quantity: Modeled (PanDDA run, DMSO background map)

>>> print(df.to_string())
                                   molecule  result
0    CNc1ccc(NS(=O)(=O)c2cc3cccc(C)c3s2)cn1    TRUE
1  O=C1CCc2cc(C(=O)N3CC(C(=O)O)CCC34CCCC4)c(F)cc2N1 (stereo not shown)    TRUE
2  O=C(O)C(c1ccccc1)n1sc2ccccc2c1=O (stereo not shown)    TRUE
3    CC(C)n1nnnc1SCc1c(C(=O)O)sc2cccc(F)c12    TRUE

====

- assay_target: SARS-CoV-2 NSP3 macrodomain (Mac1) (Severe acute respiratory syndrome coronavirus 2, UniProt P0DTD1)
- Assay type: binding
- condition_details: ligand-bound crystal structure obtained (TRUE)
quantity: X-ray crystal structure

>>> df
                                    molecule                 quantity  result
 0  OCC1C=CCCN1c1ncnc2[nH]ccc12 (stereo not shown)  X-ray crystal structure    TRUE
 1  CC(C)(C)C1CCC(CO)N(c2ncnc3[nH]ccc23)C1 (stereo not shown)  X-ray crystal structure    TRUE
 2  OC(c1ccccc1)C1CCCN1c1ncnc2[nH]ccc12 (stereo not shown)  X-ray crystal structure    TRUE
 3       OC1(CNc2ncnc3[nH]ccc23)CCC(F)(F)CC1  X-ray crystal structure    TRUE
 4  CC(O)C1CCCN1c1ncnc2[nH]ccc12 (stereo not shown)  X-ray crystal structure    TRUE
 5             OC1(CNc2ncnc3[nH]ccc23)CCSCC1  X-ray crystal structure    TRUE
 6  OC1(CNc2ncnc3[nH]ccc23)CCCC(C(F)(F)F)C1 (stereo not shown)  X-ray crystal structure    TRUE
 7  CC1CCCC(O)(CNc2ncnc3[nH]ccc23)C1 (stereo not shown)  X-ray crystal structure    TRUE
 8  O[C@H]1CC[C@@H]2CCN(c3ncnc4[nH]ccc34)[C@@H]21  X-ray crystal structure    TRUE
 9  Cc1nn(C)cc1C1CC[C@H](CO)N1c1ncnc2[nH]ccc12 (stereo partly shown)  X-ray crystal structure    TRUE
10          CN(CC1(O)CCOCC1)c1ncnc2[nH]ccc12  X-ray crystal structure    TRUE
11       CC(C)(O)[C@H]1CCCN1c1ncnc2[nH]ccc12  X-ray crystal structure    TRUE
12  O=C(O)C(F)(F)F.OC[C@@H]1CC2(CC2)CN1c1ncnc2[nH]ccc12  X-ray crystal structure    TRUE
13  OCC(O)C1CCCN1c1ncnc2[nH]ccc12 (stereo not shown)  X-ray crystal structure    TRUE
14  CCC(O)[C@H]1CCCN1c1ncnc2[nH]ccc12 (stereo partly shown)  X-ray crystal structure    TRUE
15  CC1CCN(c2ncnc3[nH]ccc23)C1CO (stereo not shown)  X-ray crystal structure    TRUE
16  O[C@H]1CC[C@H]2CCN(c3ncnc4[nH]ccc34)[C@H]21  X-ray crystal structure    TRUE
17  CC1(C)CCC(CO)N(c2ncnc3[nH]ccc23)C1 (stereo not shown)  X-ray crystal structure    TRUE
18             OC1(CNc2ncnc3[nH]ccc23)CCCCC1  X-ray crystal structure    TRUE
19  OC1CCN(c2ncnc3[nH]ccc23)C1 (stereo not shown)  X-ray crystal structure    TRUE
20  OCC1CC2(CCC2)CN1c1ncnc2[nH]ccc12 (stereo not shown)  X-ray crystal structure    TRUE
21  OC1(CNc2ncnc3[nH]ccc23)CC2CCC1CC2 (stereo not shown)  X-ray crystal structure    TRUE

====

Reported 1-BDC values follow for various compounds
- assay_target: SARS-CoV-2 NSP3 macrodomain (Mac1) (Severe acute respiratory syndrome coronavirus 2, UniProt P0DTD1)
- Assay type: binding
- condition_details: PanDDA background density correction factor
quantity: 1-BDC

>>> df
                                    compound  quantity  readout_number
 0  OCC(Nc1ncnc2[nH]ccc12)c1ccco1 (stereo not drawn)     1-BDC            0.16
 1  Cc1ccc(CC(CO)Nc2ncnc3[nH]ccc23)cc1C (stereo not drawn)     1-BDC            0.15
 2  CC(C)(C)CC(CO)Nc1ncnc2[nH]ccc12 (stereo not drawn)     1-BDC            0.13
 3  CC1(C)CCC(CO)N(c2ncnc3[nH]ccc23)C1 (stereo not drawn)     1-BDC            0.17
 4  O=C(O)C1CCCN1S(=O)(=O)c1cccc2nsnc12 (stereo not drawn)     1-BDC             0.2
 5  OC(c1ccccc1)C1CCCN1c1ncnc2[nH]ccc12 (stereo not drawn)     1-BDC            0.22
 6  CCC(Nc1ncnc2[nH]ccc12)C(C)(C)O (stereo not drawn)     1-BDC            0.14
 7  OCC(Nc1ncnc2[nH]ccc12)c1ccccc1 (stereo not drawn)     1-BDC            0.18
 8  O=C(O)C(F)(F)F.OCC1(Nc2ncnc3[nH]ccc23)CCC1     1-BDC            0.18
 9  OC1CCCN(c2ncnc3[nH]ccc23)C1 (stereo not drawn)     1-BDC            0.22
10  Cc1nn(C)cc1C1CC[C@H](CO)N1c1ncnc2[nH]ccc12 (stereo partly drawn)     1-BDC             0.1
11  OCC(COCc1ccccc1)Nc1ncnc2[nH]ccc12 (stereo not drawn)     1-BDC            0.19
12       c1ccc(-n2nnnc2CSc2nnc(NC3CC3)s2)cc1     1-BDC            0.11
13  CN(C)CC(CO)Nc1ncnc2[nH]ccc12 (stereo not drawn)     1-BDC            0.17
14  OCCC(CO)Nc1ncnc2[nH]ccc12 (stereo not drawn)     1-BDC            0.25
15  OCC1CC2(CCC2)CN1c1ncnc2[nH]ccc12 (stereo not drawn)     1-BDC            0.24
16  OCC(Nc1ncnc2[nH]ccc12)C1CCC1 (stereo not drawn)     1-BDC            0.13
17  C#CCC(CO)Nc1ncnc2[nH]ccc12 (stereo not drawn)     1-BDC            0.18
18  OCC(CC1CCCC1)Nc1ncnc2[nH]ccc12 (stereo not drawn)     1-BDC            0.18
19  OCC1CC2(CCOCC2)CN1c1ncnc2[nH]ccc12 (stereo not drawn)     1-BDC            0.21
20  OCC(Cc1ccoc1)Nc1ncnc2[nH]ccc12 (stereo not drawn)     1-BDC            0.21
21  OCC1C2CCC(C2)N1c1ncnc2[nH]ccc12 (stereo not drawn)     1-BDC            0.29
22            Nc1nnc(SCCn2c(=O)oc3ccccc32)s1     1-BDC            0.06
23  OCC(Nc1ncnc2[nH]ccc12)C1CC1 (stereo not drawn)     1-BDC            0.18
24  OCC(CC(O)c1ccccc1)Nc1ncnc2[nH]ccc12 (stereo not drawn)     1-BDC            0.17
25  Cc1cc2c(=O)n(CCN3C(=O)c4ccccc4S3(=O)=O)nnc2s1     1-BDC            0.18
26  OCC(Cc1nccs1)Nc1ncnc2[nH]ccc12 (stereo not drawn)     1-BDC            0.19
27  NC(=O)C1(O)CCN(c2ncnc3[nH]ccc23)C1 (stereo not drawn)     1-BDC            0.22
28  Cc1ccc(CC(CO)Nc2ncnc3[nH]ccc23)cc1 (stereo not drawn)     1-BDC            0.15
29  OCC(CC1CCCCC1)Nc1ncnc2[nH]ccc12 (stereo not drawn)     1-BDC            0.12
30  CN1CCN(c2ncnc3[nH]ccc23)C(CO)C1 (stereo not drawn)     1-BDC            0.06
31      O[C@@H]1CN(c2ncnc3[nH]ccc23)C[C@H]1F     1-BDC             0.2
32  CC(C)(C)[C@@H]1CCN(c2ncnc3[nH]ccc23)[C@H](CO)C1     1-BDC            0.11
33  OCC(CC1CCOC1)Nc1ncnc2[nH]ccc12 (stereo not drawn)     1-BDC            0.17
34  CC(CNC(=O)c1ccc2c(c1)CCC(=O)N2)C(=O)O (stereo not drawn)     1-BDC            0.11
35  CC1CCN(C(=O)c2ccc3c(c2)nc(CO)n3C)CC1C(=O)O (stereo not drawn)     1-BDC            0.25
36  CC1(C)C[C@@H](CO)N(c2ncnc3[nH]ccc23)C1.O=C(O)C(F)(F)F     1-BDC            0.33
37       CC(C)(O)[C@H]1CCCN1c1ncnc2[nH]ccc12     1-BDC            0.44
38  CCC(O)[C@H]1CCCN1c1ncnc2[nH]ccc12 (stereo partly drawn)     1-BDC             0.3
39  OCC1CC2(CCCCC2)CN1c1ncnc2[nH]ccc12 (stereo not drawn)     1-BDC            0.29
40          Cc1sc2ncnc(Sc3ccccc3C(=O)O)c2c1C     1-BDC            0.15
41  O=C(O)C(F)(F)F.OC[C@@H]1CC2(CC2)CN1c1ncnc2[nH]ccc12     1-BDC            0.26
42  OCC(Cc1c[nH]c2ccccc12)Nc1ncnc2[nH]ccc12 (stereo not drawn)     1-BDC            0.15
43  Cc1ccccc1CC(CO)Nc1ncnc2[nH]ccc12 (stereo not drawn)     1-BDC            0.19
44  CCCC(CO)Nc1ncnc2[nH]ccc12 (stereo not drawn)     1-BDC            0.16
